Study System: JAK2 (JH1 domain-catalytic, Y1007F, Y1008F) kinase (Homo sapiens (Human), UniProt O60674, Y1007F/Y1008F)
Sequence (O60674 849-1124 Y1007F/Y1008F): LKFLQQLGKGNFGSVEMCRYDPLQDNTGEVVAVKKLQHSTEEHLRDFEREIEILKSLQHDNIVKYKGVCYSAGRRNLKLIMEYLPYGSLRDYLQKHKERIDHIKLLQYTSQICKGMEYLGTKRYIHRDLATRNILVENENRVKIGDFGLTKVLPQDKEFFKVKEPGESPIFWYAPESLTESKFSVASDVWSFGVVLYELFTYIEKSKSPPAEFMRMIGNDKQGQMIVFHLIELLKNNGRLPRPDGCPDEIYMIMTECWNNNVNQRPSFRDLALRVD
Measurement Notes: JAK2 JH1 Domain Binding Assay
Condition Set: qPCR readout
pKd: −log10 of the molar value.

| Compound | pKd |
| --- | --- |
| COCc1cc2nc(N3CCC(N(C)C(=O)Nc4cc(C(F)(F)F)cn(C)c4=O)CC3)cnc2[nH]1 | > 8.00 |
| COc1c[nH]c2ncc(N3CCC(N(C)C(=O)Nc4cc(C(F)(F)F)cn(C)c4=O)CC3)cc12 | > 8.00 |
| COCc1cc2nc(N3CC[C@H](N(C)C(=O)Nc4cc(C(F)(F)F)cn(C)c4=O)[C@@H](OC)C3)cnc2[nH]1 | 6.00 to 7.30 |
| COc1n[nH]c2ncc(N3CC[C@H](N(C)C(=O)Nc4cc(C(F)(F)F)cn(C)c4=O)C[C@@H]3C)cc12 | > 8.00 |
| COc1c[nH]c2ncc(N3CC[C@H](N(C)C(=O)Nc4cc(C(F)(F)F)cn(C)c4=O)C[C@@H]3C)nc12 | 6.00 to 7.30 |
| Cn1cc(C(F)(F)F)cc(NC(=O)N2CC=CC23CCN(c2cnc4[nH]cc(F)c4n2)CC3)c1=O | 7.30 to 8.00 |
| C[C@@H]1C[C@H](N(C)C(=O)Nc2cc(C(F)(F)F)cn(C)c2=O)CCN1c1cnc2[nH]ncc2c1 | > 8.00 |
| COc1c[nH]c2ncc(N3CC[C@@H](N(C)C(=O)Nc4cc(C(F)(F)F)cn(C)c4=O)[C@H](F)C3)nc12 | > 8.00 |
| COCCOc1n[nH]c2ncc(N3CC[C@H](N(C)C(=O)Nc4cc(C(F)(F)F)cn(C)c4=O)[C@H](F)C3)cc12 | > 8.00 |
| CNc1cn2ncc(N3CCC(N(C)C(=O)Nc4cc(C(F)(F)F)cn(C)c4=O)CC3)c2cn1 | 7.30 to 8.00 |
| COc1n[nH]c2ncc(N3CC[C@@H](N(C)C(=O)Nc4cc(C(F)(F)F)cn(C)c4=O)C[C@H]3C)cc12 | > 8.00 |
| CN(C(=O)Nc1cc(C(F)(F)F)cn(C)c1=O)C12CC(c3cnc4[nH]nc(OC5CCOC5)c4c3)(C1)C2 (mixture of isomers) | > 8.00 |
| Cn1cc(C(F)(F)F)cc(NC(=O)N(C)[C@H]2CC[C@@H](c3cnc4[nH]cc(N5CCOCC5)c4n3)CC2)c1=O | 6.00 to 7.30 |
| CN(C(=O)Nc1cc(C(F)(F)F)cn(C)c1=O)[C@@H]1CCN(c2cnc3[nH]nc(OC[C@H]4COCCO4)c3c2)C[C@@H]1F | > 8.00 |
| CC(=O)Nc1cnc(N2CCC(N(C)C(=O)Nc3cc(C(F)(F)F)cn(C)c3=O)CC2)cn1 | > 8.00 |
| C[C@@H]1CN(C(=O)Nc2cc(C(F)(F)F)cn(C)c2=O)C2(CCN(c3cnc4[nH]ccc4n3)CC2)C1 (single isomer, unassigned) | 6.00 to 7.30 |
| C[C@H]1CN(C(=O)Nc2cc(C(F)(F)F)cn(C)c2=O)C2(CCN(c3cnc4[nH]cc(C#N)c4n3)CC2)C1 (single isomer, unassigned) | 6.00 to 7.30 |
| COc1c[nH]c2ncc(N3CC[C@@H]4[C@@H](C3)OCCN4C(=O)Nc3cc(C(F)(F)F)cn(C)c3=O)nc12 | 7.30 to 8.00 |
| CN(C(=O)Nc1cc(C(F)(F)F)cn(C)c1=O)[C@@H]1CCN(c2cnc3[nH]cc(N4CCOCC4)c3n2)CC1(F)F (single isomer, unassigned) | 7.30 to 8.00 |
| CO[C@H]1CN(c2cnc3[nH]cc(C)c3n2)CC[C@@H]1N(C)C(=O)Nc1cc(C(F)(F)F)cn(C)c1=O | 6.00 to 7.30 |
| COc1n[nH]c2ncc(N3CCC(N(C)C(=O)Nc4cc(C5CC5)cn([C@H]5CCCOC5)c4=O)CC3)cc12 | > 8.00 |
| Cc1c[nH]c2ncc(N3CCC(N(C)C(=O)Nc4cc(C(F)(F)F)cn(C)c4=O)C(F)(F)C3)nc12 (single isomer, unassigned) [Example I-33-b] | > 8.00 |
| CN(C(=O)Nc1cc(C(F)(F)F)cn(C)c1=O)C1CCN(c2cnc3[nH]cc(N4CCOCC4)c3n2)CC1 | > 8.00 |
